- measurement target: T1, human histidine-rich glycoprotein (HRG), purified from human plasma (human, UniProt P04196 19-525)
- T1 construct: also called human purified HRG; human purified HRG protein
- T1 sequence: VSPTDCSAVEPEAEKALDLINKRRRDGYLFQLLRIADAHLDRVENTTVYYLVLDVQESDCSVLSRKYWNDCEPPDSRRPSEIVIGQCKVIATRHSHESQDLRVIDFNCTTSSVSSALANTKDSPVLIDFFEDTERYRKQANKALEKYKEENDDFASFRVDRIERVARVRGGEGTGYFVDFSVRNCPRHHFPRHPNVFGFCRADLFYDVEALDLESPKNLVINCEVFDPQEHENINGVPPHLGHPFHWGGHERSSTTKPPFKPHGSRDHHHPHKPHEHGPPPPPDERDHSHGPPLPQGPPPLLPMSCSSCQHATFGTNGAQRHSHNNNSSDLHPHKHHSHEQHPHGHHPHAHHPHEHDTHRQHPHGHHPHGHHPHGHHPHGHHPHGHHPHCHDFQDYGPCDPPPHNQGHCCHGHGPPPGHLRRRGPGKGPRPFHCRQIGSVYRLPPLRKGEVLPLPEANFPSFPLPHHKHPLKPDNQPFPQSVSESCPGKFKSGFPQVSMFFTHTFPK
- measurement description: sandwich ELISA, HRG captured by solid phase 35-3G-10C
measured attribute: absorbance at 450 nm

binder="anti-HRG monoclonal antibody 67-8A-5F (antibody, V domains shown, Mouse hybridoma monoclonal) VH: EVQLQESGPGLVKPSQSLSLTCTVTGYSITSDYAWNWIRQFPGNKLEWMGYISYSGSTSYNPSLKSRISITRDTSKNQFFLQLNSVTTEDTATYYCASASYRYAWFAYWGQGTLVTVSA VL: DIQMTQTTSSLSASLGDRVTISCRASQDISNYLNWYQQKPDGTVKLLIYYTSRLLSGVPSRFSGSGSGTDYSLTISNLEQEDIATYFCQQGNTLPTFGGGTKLEIK" result="< 1 OD"

Give me measured absorbance at 450 nm, please, for this binder: anti-HRG monoclonal antibody 3-4E (antibody, V domains shown, Mouse (BALB/c) hybridoma monoclonal, Protein A purified; biotin-labeled when used as detection antibody) VH: QVQLQQSGAELMKPGASVKISCKATGYTFSTFWMEWVKQRPGHGLEWIGEILPGSGNANYNEKFKGKATFTADTSSNTAYMQLSSLTSEDSAVYYCAIHYYGYGFAYWGQGTLVTVSA VL: DNVLTQSPAIMSASLGERVTMTCTASSSVSSSYLHWYQQKPGSSPKLWIYTTSNLASGVPVRFSGSGSGTSYSLTISSMEAEDAATYYCHQYHRSPWTFGGGTKLEIK < 1 OD
